Test system: NRDP1
testDescription: GFPu assay selectivity screen, cells transfected with NRDP1
Format: cell-based
measurementConditions: GFPu assay, NRDP1 transfected cells; 10 uM to about 78 nM; read-out: NRDP IC50
Text: The first is the RING finger ligase NRDP1 as a molecule structurally and functionally similar to Parkin. The second is the Cystic Fibrosis Transmembrane Conductance Regulator (CFTR) as a molecule that is a twelve-pass membrane channel protein, and structurally not related to Parkin. Dose response curves were generated by exposing cells to compounds at various concentrations. […] “Hill” refers to the Hill Slope.
pIC50: −log10 of the molar value.
Below is a list of entries, each paired with its recorded pIC50 value.

compound	tgt	pIC50
N[C@@H](Cc1ccc(N(CCCl)CCCl)cc1)C(=O)O	NRDP1	< 5.00

pIC50 recorded for this compound, `O=c1c(O)c(-c2cc(O)c(O)c(O)c2)oc2cc(O)cc(O)c12` , is < 5.00

Form: compound = `Nc1ncn([C@@H]2O[C@H](CO)[C@@H](O)[C@H]2O)c(=O)n1` ; pIC50 = 5.24

pIC50 reported for this compound `CC[C@]1(O)C[C@@H]2CN(CCc3c([nH]c4ccccc34)[C@@](C(=O)OC)(c3cc4c(cc3OC)N(C)[C@H]3[C@@](O)(C(=O)OC)[C@H](OC(C)=O)[C@]5(CC)C=CCN6CC[C@]43[C@@H]65)C2)C1` : < 5.00

pIC50 recorded for this compound, `COC(=O)Nc1nc2ccc(C(=O)c3cccs3)cc2[nH]1` , is < 5.00

Notebook: `COC[C@H]1OC(=O)c2coc3c2[C@@]1(C)C1=C(C3=O)[C@@H]2CCC(=O)[C@@]2(C)C[C@H]1OC(C)=O` , pIC50 read as < 5.00

// sample `CC[C@]1(O)C[C@H]2CN(CCc3c([nH]c4ccccc34)[C@@](C(=O)OC)(c3cc4c(cc3OC)N(C=O)[C@H]3[C@@](O)(C(=O)OC)[C@H](OC(C)=O)[C@]5(CC)C=CCN6CC[C@]43[C@@H]65)C2)C1` , its pIC50 was < 5.00

pIC50 in this record for `COc1cc([C@@H]2c3cc4c(cc3[C@H](O)[C@H]3COC(=O)[C@H]23)OCO4)cc(OC)c1OC` : < 5.00

Memo: `Cc1ccc(S(=O)(=O)N[C@@H](Cc2ccccc2)C(=O)CCl)cc1` , reported pIC50: 5.26

Sample `O=C1c2c(O)ccc(O)c2C(=O)c2c(NCCNCCO)ccc(NCCNCCO)c21` ; pIC50 observed: 5.82

Recorded pIC50 (compound CN(Cc1cnc2nc(N)nc(N)c2n1)c1ccc(C(=O)N[C@@H](CCC(=O)O)C(=O)O)cc1 [ELN476809, methotrexate] ): 6.81
